// kinase still bound, per cent of control lookup, one value per entry
biological target: PRKACB (human) (UniProt P22694); assay: KINOMEscan competition binding; conditions: compound 10.0 µM

- Structure: "COc1cc2ncnc(-n3nc(-c4ccccn4)nc3N)c2cc1OC"
  Assayed target: "PRKACB (human) (UniProt P22694)"
  kinase still bound, per cent of control (%): 100
- Structure: "COCC(=O)NC/C=C/c1ccc2ncnc(Nc3ccc(Oc4ccc(C)nc4)c(C)c3)c2c1"
  Assayed target: "PRKACB (human) (UniProt P22694)"
  kinase still bound, per cent of control (%): 100
- Structure: "C[C@@H](Oc1cc(-c2cnn(C3CCNCC3)c2)cnc1N)c1c(Cl)ccc(F)c1Cl"
  Assayed target: "PRKACB (human) (UniProt P22694)"
  kinase still bound, per cent of control (%): 100
- Structure: "COc1cc2ncn(-c3cc(OCc4ccccc4C(F)(F)F)c(C(N)=O)s3)c2cc1OC"
  Assayed target: "PRKACB (human) (UniProt P22694)"
  kinase still bound, per cent of control (%): 100
- Structure: "NC(=O)Nc1cc(-c2cccc(F)c2)sc1C(=O)N[C@@H]1CCCNC1"
  Assayed target: "PRKACB (human) (UniProt P22694)"
  kinase still bound, per cent of control (%): 1.8
- Structure: "N#CCNC(=O)c1ccc(-c2ccnc(Nc3ccc(N4CCOCC4)cc3)n2)cc1"
  Assayed target: "PRKACB (human) (UniProt P22694)"
  kinase still bound, per cent of control (%): 36
- Structure: "O=C1NC(=O)/C(=C/c2ccc3nccc(-c4ccncc4)c3c2)S1"
  Assayed target: "PRKACB (human) (UniProt P22694)"
  kinase still bound, per cent of control (%): 31
- Structure: "COc1cc(C(=O)N2CCC(N3CCN(C)CC3)CC2)ccc1Nc1ncc2c(n1)N(C)c1ccccc1C(=O)N2C"
  Assayed target: "PRKACB (human) (UniProt P22694)"
  kinase still bound, per cent of control (%): 100
- Structure: "CCN(CC)CCCCNc1ncc2cc(-c3cc(OC)cc(OC)c3)c(NC(=O)NC(C)(C)C)nc2n1"
  Assayed target: "PRKACB (human) (UniProt P22694)"
  kinase still bound, per cent of control (%): 100
